experiment: NCI Yeast Anticancer Drug Screen. Data for the rad50 strain (AID 155);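 note: 0% = growth of vehicle-only cultures of the same strain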; conditions: S. cerevisiae rad50 strain growth inhibition; at 50.0 µM; stronger effect = higher value
About 79,000 compounds went through this panel and 15% of them were active in at least one assay; those are over-represented in the sample as a whole.
experimental-readout: growth inhibition (%)
The reply should be a number in %, with the unit left off.

A selection of reference data follows.
compound	unit	observed-value
OC1(Cl)c2cccc3cccc(c23)C1(O)Cl (stereo not given)	%	-0.8
CCC(=O)Oc1ccccc1OC(=O)CC	%	35.9
C/C=C(\C)C(=O)OCC1CC[N+](C)([O-])C1 (stereo not given)	%	-23.8
CC(C)(N)CNCC(C)(C)N	%	6.9
Cc1ccc(S(=O)(=O)OCC2COC(C(C)C)OC2)cc1 (stereo not given)	%	5.45
COc1cnc2cc(C(=O)O)c3ccccc3c2c1	%	40.5
CCOC(=O)c1ccc(N)cc1	%	19.2
CC(CN(C)C)C(/C=C/c1ccccc1)=N\Nc1ccccc1 (stereo not given)	%	-5.7
CCCCCCSc1nc2c([nH]1)c(=O)n(C)c(=S)n2C	%	2.5
CS(=O)(=O)OCCOc1ccccc1	%	1.15

Q. Provide measured growth inhibition value, entry: Cc1cc2nc(C(C)C(=O)c3ccc(Cl)cc3)c(=O)[nH]c2cc1C (stereo not given)
A. -12.1

Q. Answer with the recorded growth inhibition of C=CCC12CC(O)C(O)CC1(OC)OC(c1cc(OC)c(OC)c(OC)c1)C2C (stereo not given) only.
A. -1.1

Q. Give the reported value of growth inhibition for this record: CCO[C@H]1OC(=O)[C@@H]2C(c3ccc(F)cc3)=NO[C@H]12
A. -27.1

Q. Please indicate growth inhibition recorded for CC1(C)C2=CCCC(=O)[C@@]2(C)CC[C@@H]1O
A. -4.15

Q. Please look at this compound and report its growth inhibition: Nc1cc(Cl)c(I)c(Cl)c1
A. -4.5

Q. Annotate the compound NC(N)=NCCCc1ccccc1 with its measured growth inhibition.
A. 7.05

Q. Let me know recorded growth inhibition for Nc1c(S(N)(=O)=O)cc(S(N)(=O)=O)cc1S(N)(=O)=O , thanks.
A. 0.75

Q. Tell me growth inhibition reported for N=c1sc(N2CCOCC2)nn1CC(=O)c1ccccc1
A. 3.25

Q. Please indicate growth inhibition recorded for COC(=O)c1cc2c(n1S(=O)(=O)c1ccc(C)cc1)C(=O)C(=O)c1[nH]cc(C(=O)OCc3ccccc3)c1-2
A. 0.6

Q. Recall and state the measured growth inhibition for CC(=O)SC12CCCN1C(=O)C1(SC(C)=O)CCCN1C2=O (stereo not given) .
A. 40.5

Q. Name the recorded growth inhibition of the compound listed here: CCCCCCCC(=O)OCC(=O)c1ccc(-c2ccccc2)cc1
A. -24.8

====

assay: NCI Yeast Anticancer Drug Screen. Data for the mlh1 rad18 strain (AID 175); details: S. cerevisiae mlh1 rad18 strain growth inhibition; at 50.0 µM; stronger effect = higher value
About 79,000 compounds went through this panel and 15% of them were active in at least one assay; those are over-represented in the sample as a whole. Where a SMILES comes first, the peptide text is derived from it. The star is where a group is joined. Boc = CC(C)(C)OC(=O)*; OBn = c1ccc(CO*)cc1
experimental-readout: growth inhibition (%)
The response must be a number in % with no trailing unit.

Check out these entries, answers already filled in.
molecule	growth inhibition [%]
CC(CC(=O)O)(CC(=O)O)c1ccccc1	-35.1
CN(C)c1ccccc1CN1CCCN(Cc2ccccc2N(C)C)C1c1ccncc1	-1.55
CCCC1CCCC12CCc1ccccc1C2=O (stereo unspecified)	1.15
NC(=O)C[n+]1cccc(C(=O)Nc2ccc(Cl)cc2)c1	-0.75
CCOC(=O)C(O)Cc1cnc2ccccc2n1 (stereo unspecified)	7.55
O=C(O)C(Cl)C(Cl)c1ccc(Cl)cc1 (stereo unspecified)	6.6
CCc1ccc(C(=O)O)o1	12.3
CC(C(=O)O)C(=O)NNc1ccccc1 (stereo unspecified)	-16.4
O=S(=O)(O)c1cc(O)c(N=NC2S(=O)(=O)OCCOS2(=O)=O)c2ccccc12	-4.05
CC(NC(=O)C(NC(=O)OC(C)(C)C)C(C)C)C(=O)N1CCCC1C(=O)NCC(=O)NC(C(=O)NCC(=O)OCc1ccccc1)C(C)C (stereo unspecified) (Boc-VAPGVG-OBn; configuration not given here)	-48.4

Q. Please give the documented growth inhibition of O=C1c2ccccc2C(=O)c2c(Cl)cccc21
A. 7.35

====

test: NCI Yeast Anticancer Drug Screen. Data for the mlh1 rad18 strain (AID 175); details: S. cerevisiae mlh1 rad18 strain growth inhibition; at 50.0 µM; stronger effect = higher value
About 79,000 compounds went through this panel and 15% of them were active in at least one assay; those are over-represented in the sample as a whole.
experimental-readout: growth inhibition (%)
Numbers only; they are read as %.

Some solved entries appear below for comparison.
molecule	unit	growth inhibition
c1csc(-c2sc(-c3ccsc3)cc2Cc2ccsc2)c1	%	-23.3
CCOC(=O)c1c(-c2ccc(Cl)cc2)c(C#N)c(=S)n(C2OC(COC(C)=O)C(OC(C)=O)C(OC(C)=O)C2OC(C)=O)c1C (configuration not stated)	%	5.7
CCN(Cc1ccccc1)C(=O)Nc1c(Cl)cccc1Cl	%	-4.05

Q. Determine its reported growth inhibition: CCOc1ccc(N=C(NC(=O)c2ccccc2)SC)cc1
A. 0.65

Q. Give a short answer stating reported growth inhibition for CSC1(C)CC2C(CC1N1CCOCC1)C2(C)C (configuration not stated) .
A. -26.2

====

experiment: NCI Yeast Anticancer Drug Screen. Data for the bub3 strain (AID 167); conditions: S. cerevisiae bub3 mutant strain, at 50.0 µM
The panel holds about 79,000 compounds, 15% with a hit somewhere; the sample as a whole holds those more often. The source made the active and inactive calls. No stated cut-off is given here; in the data, active means growth inhibition above about 70%; inactive means the rest.
Hello, when you answer, please use one of the following outcomes: active, inactive

See these solved cases before continuing.
molecule	class-assignment
CCOC(=O)C(C(=O)OCC)=C(N)C(Cl)(Cl)Cl	inactive
CC1C(O)CC23COC(=O)C2=CCCC3C1(C)CCC1COC(=O)C1 (stereo not given)	inactive

Q. Outcome? O=C(Nc1cccc(C(F)(F)F)c1)OCCOc1ccc(Cl)cc1
A. active

Q. Identify the outcome logged in this assay for the molecule shown: CNc1ccc2c(c1)C(=O)c1ccccc1-2
A. inactive

Q. Give the logged outcome of this assay for the following molecule: CN(C)CCNS(=O)(=O)N(C)C
A. inactive

Q. What call does the record list for COC(=O)C(Cc1c[nH]c2ccccc12)NP(=O)(O)OCC1OC(n2cc(Br)c(=O)[nH]c2=O)CC1O (stereo not given) ?
A. inactive

Q. Entry CCN(CC)C(=O)Cc1[nH][nH]c(=O)c1C(=O)N(CC)CC : call = ?
A. inactive

Q. Which outcome did this test record for the molecule Cc1cc(=O)n(-c2ccc(-c3ccc(-n4c(C)c(C(=O)O)c(C)cc4=O)cc3)cc2)c(C)c1C(=O)O ?
A. inactive

Q. Hi team, can someone confirm the assay call for CN(C)Cc1cc(N=Nc2c(Cl)cccc2Cl)ccc1O ?
A. inactive

Q. Call for entry COc1cc(C2(C)SCCCS2)cc(OC)c1OC :
A. inactive

Q. What was the test verdict on FC1(F)C2(OCCO2)C(F)(F)C12OCCO2 ?
A. inactive

Q. What did the test return for CCSc1sc(=Nc2ccc(N=c3sc(C)c(SC)s3)cc2)sc1-c1ccc(C)cc1 ?
A. inactive

Q. What is the recorded call for this molecule in the test? NC(=O)C1=C(O)C(=O)NC1=O
A. inactive

====

assay: NCI Yeast Anticancer Drug Screen. Data for the mlh1 rad18 strain (AID 175); settings: S. cerevisiae mlh1 rad18 strain growth inhibition; at 50.0 µM; stronger effect = higher value
About 79,000 compounds went through this panel and 15% of them were active in at least one assay; those are over-represented in the sample as a whole.
In this section we review reported growth inhibition values for a set of compounds.
Answer in %, number only, no unit symbol.

Use the examples below as a reference point.
compound	unit	growth inhibition
Cc1ccc2[nH]c(=O)cc(C)c2c1	%	30.8
CCCC(=O)/C=C\c1ccccc1	%	-10.7
O=C(O)c1cc(O)c(O)c(Cl)c1	%	5.05
c1ccc([Si](c2ccccc2)(c2ccccc2)c2ccc(-c3ccc([Si](c4ccccc4)(c4ccccc4)c4ccccc4)cc3)cc2)cc1	%	-15.9
CNC(=O)c1ccc(C(=O)NC)cc1	%	-1.75
CCO[Si](C)(CCC#N)OCC	%	4.75
CCCCCC(=O)/C=C/Sc1n[nH]c(=O)[nH]c1=O	%	62.1
COC(=O)/C(=C\c1ccccc1[N+](=O)[O-])c1ccc2c(c1)OCO2	%	14.4

Q. Hello, please tell me recorded growth inhibition for this one: CN1CC(=O)N(C(=O)c2ccccc2)C1=N
A. 9.55

Q. Identify measured growth inhibition corresponding to O=S1c2ccccc2N=C(c2cccc3ccccc23)CC1c1cccc2ccccc12 (stereo not drawn)
A. 41

Q. Give reported growth inhibition value for O=C1C(Cl)C(c2ccc(O)cc2)N1n1cnc2ccccc2c1=O (stereo not drawn)
A. 36.6

Q. Given O=C1OC(c2ccc([N+](=O)[O-])cc2)=N/C1=C\c1cc(Br)ccc1O , respond with its growth inhibition.
A. 35

Q. Supply reported growth inhibition belonging to this compound: O/N=C1\CCn2cccc21
A. -11.2

Q. Read the entry COc1ccc2c(c1OC)C(=O)O[C@@H]2[C@H]1c2c(cc3c(c2OC)OCO3)CCN1C and write its reported growth inhibition.
A. 11.3

Q. Return growth inhibition for the following compound: COc1cc(OC)c(C2c3cc4c(cc3OC(N3CCCC3)C2C)OCO4)c(OC)c1 (stereo not drawn)
A. -1.4
